# STUDY_TARGET: furin (endogenous protease) in U20S cells (Homo sapiens, UniProt P09958)
# Construct: the endogenous protease cleaves GFP; endogenous in cells; host or cells: U2OS cells transduced with a BacMam reporter
# Sequence (P09958 108-794): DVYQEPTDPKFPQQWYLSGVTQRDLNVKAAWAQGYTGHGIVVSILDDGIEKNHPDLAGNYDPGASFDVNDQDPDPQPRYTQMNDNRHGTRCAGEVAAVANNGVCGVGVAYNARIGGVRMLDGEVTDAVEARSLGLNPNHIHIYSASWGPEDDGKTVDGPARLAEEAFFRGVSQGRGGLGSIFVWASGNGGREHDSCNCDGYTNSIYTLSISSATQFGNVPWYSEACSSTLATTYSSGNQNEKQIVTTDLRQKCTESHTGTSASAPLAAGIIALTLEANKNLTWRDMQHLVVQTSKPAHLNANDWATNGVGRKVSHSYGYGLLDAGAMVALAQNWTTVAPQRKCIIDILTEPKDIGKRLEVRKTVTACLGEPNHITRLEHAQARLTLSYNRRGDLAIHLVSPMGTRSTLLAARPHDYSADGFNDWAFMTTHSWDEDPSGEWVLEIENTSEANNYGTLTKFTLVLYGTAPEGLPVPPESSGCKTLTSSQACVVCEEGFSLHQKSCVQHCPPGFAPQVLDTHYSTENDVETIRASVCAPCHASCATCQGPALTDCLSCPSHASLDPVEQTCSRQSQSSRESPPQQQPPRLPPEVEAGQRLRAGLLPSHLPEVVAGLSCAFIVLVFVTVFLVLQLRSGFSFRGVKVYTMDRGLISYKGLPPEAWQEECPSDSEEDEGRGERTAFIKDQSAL
# ASSAY_SUMMARY: Furin cell-based assay (image-based, Golgi-targeted GFP with BMP10 furin/PCSK cleavage site)
# TEST_PARAMETERS: 24-hour incubation, read-out: furin golgi cell pXC50 (converted)
Known EC50 of a selection of compounds
PARAMETER_MEASURED: EC50

INSERT INTO measurements (compound, parameter_measured, result) VALUES
  ('CC(=O)NCC1CCN(Cc2cc(Oc3cnc(N4CCN(CCC(N)=O)CC4)nc3)cc(-c3cc(Cl)cc(Cl)c3)c2)CC1', 'EC50', '12.6 nM'),
  ('CC(=O)NCC1CCN(Cc2cc(Oc3cnc(N4CC5CCC(C4)N5C)nc3)nc(-c3cc(Cl)cc(Cl)c3)c2)CC1', 'EC50', '1.58 nM'),
  ('CN(C)C1CCN(c2ncc(Oc3cc(CN4CCC(CC(=O)O)CC4)cc(-c4cc(Cl)cc(Cl)c4)n3)cn2)CC1', 'EC50', '39.8 nM'),
  ('CC(=O)NCC1CCN(Cc2cc(Oc3cnc(N4CCNCC4)cn3)nc(-c3cc(Cl)cc(Cl)c3)c2)CC1', 'EC50', '15.8 nM'),
  ('CC(=O)NCC1CCN(Cc2cc(Oc3cnc(N4CCN(CC(O)C(=O)O)CC4)nc3)nc(-c3cc(Cl)cc(Cl)c3)c2)CC1 (stereo not shown)', 'EC50', '100 nM'),
  ('CCNC(=O)CC1CCN(Cc2cc(Oc3cnc(N4CCN(CCC(=O)O)CC4)nc3)nc(-c3cc(Cl)cc(Cl)c3)c2)CC1', 'EC50', '63.1 nM'),
  ('CNC(=O)OCCN1CCN(c2ncc(Oc3cc(CN4CCC(CC(=O)O)CC4)cc(-c4cc(Cl)cc(Cl)c4)n3)cn2)CC1', 'EC50', '63.1 nM');

* * *

# STUDY_TARGET: furin (endogenous protease) in U20S cells (Homo sapiens)
# Construct: the endogenous protease cleaves GFP; endogenous in cells; host or cells: U2OS cells transduced with a BacMam reporter
# ASSAY_SUMMARY: Furin cell-based assay (image-based, Golgi-targeted GFP with BMP10 furin/PCSK cleavage site)
# TEST_PARAMETERS: 24-hour incubation, read-out: furin golgi cell pXC50 (converted)
Structures can show the parent of a compound that is named as a salt.
PARAMETER_MEASURED: log10(EC50) (log10 of the value in nM)

INSERT INTO assay_data (compound, readout_number) VALUES
  ('CN1CCN(c2ncc(Oc3nc(-c4cc(Cl)cc(Cl)c4)cc(CN4CCC(CC(=O)O)CC4)c3F)cn2)CC1', 1.30),
  ('CC(=O)NCC1CCN(Cc2cc(Oc3ccc(N4CC5CNCC5C4)nc3)nc(-c3cc(Cl)cc(Cl)c3)c2)CC1 (stereo not shown)', 0.50),
  ('CC(=O)NCC1CCN(Cc2cc(Oc3cnc(N4CCN(CCC(N)=O)CC4)nc3)nc(-c3cc(Cl)cc(Cl)c3)c2)CC1', 0.70),
  ('CC(C)N1CCN(c2ncc(Oc3cc(CN4CCC(CC(=O)O)CC4)cc(-c4cc(Cl)cc(Cl)c4)n3)cn2)CC1', 1.20),
  ('CC(=O)NCC1CCN(Cc2cc(Oc3ccc(N4CCNC(C)(C)C4)nc3)nc(-c3cc(Cl)cc(Cl)c3)c2)CC1', 0.30),
  ('CNC(=O)NCC1CCN(Cc2cc(Oc3cnc(N4CCN(CCCS(C)(=O)=O)CC4)nc3)nc(-c3cc(F)cc(Cl)c3)c2)CC1', 0.80),
  ('CC(=O)NCC1CCN(Cc2cc(Oc3cnc(N4CC5CCC(C4)N5)nc3)nc(-c3cc(Cl)cc(Cl)c3)c2)CC1', 0.10),
  ('CC(=O)NCC1CCN(Cc2cc(Oc3ccc(N4CCN(CC[S+](C)[O-])CC4)nc3)nc(-c3cc(Cl)cc(Cl)c3)c2)CC1 (stereo not shown) [Example 15, hydrochloride]', 1.40),
  ('Cc1c(CN2CCC(CC(=O)O)CC2)cc(-c2cc(Cl)cc(Cl)c2)nc1Oc1cnc(N2CCN(C)CC2)cn1', 1.10),
  ('CNC(=O)NCC1CCN(Cc2cc(Oc3ccc(N4CCN(C[C@@H](C)O)CC4)nc3)nc(-c3cc(Cl)cc(Cl)c3)c2)CC1', 0.40),
  ('CC(=O)NCC1CCN(Cc2cc(Oc3cnc(N4CCN(CCC(N)=O)CC4)cn3)nc(-c3cc(Cl)cc(Cl)c3)c2)CC1', 0.80),
  ('COC(=O)NCC1CCN(Cc2cc(Oc3cnc(N4CCN(C)CC4)nc3)nc(-c3cc(Cl)cc(Cl)c3)c2)CC1 [Example 63, hydrochloride]', 0.90),
  ('CCC(=O)NCC1CCN(Cc2cc(Oc3cnc(N4CCN(CCC(C)C(=O)O)CC4)cn3)nc(-c3cc(Cl)cc(Cl)c3)c2)CC1 (stereo not shown)', 1.20);

* * *

# STUDY_TARGET: Furin (108-574-Tev-Flag-His) enzyme (Homo sapiens)
# Construct: Furin (108-574-Tev-Flag-His) enzyme was expressed and purified from CHO cells; TEV cleavage site (C); FLAG (C); His (C); made in house; host or cells: CHO cells
# Sequence (P09958 108-574): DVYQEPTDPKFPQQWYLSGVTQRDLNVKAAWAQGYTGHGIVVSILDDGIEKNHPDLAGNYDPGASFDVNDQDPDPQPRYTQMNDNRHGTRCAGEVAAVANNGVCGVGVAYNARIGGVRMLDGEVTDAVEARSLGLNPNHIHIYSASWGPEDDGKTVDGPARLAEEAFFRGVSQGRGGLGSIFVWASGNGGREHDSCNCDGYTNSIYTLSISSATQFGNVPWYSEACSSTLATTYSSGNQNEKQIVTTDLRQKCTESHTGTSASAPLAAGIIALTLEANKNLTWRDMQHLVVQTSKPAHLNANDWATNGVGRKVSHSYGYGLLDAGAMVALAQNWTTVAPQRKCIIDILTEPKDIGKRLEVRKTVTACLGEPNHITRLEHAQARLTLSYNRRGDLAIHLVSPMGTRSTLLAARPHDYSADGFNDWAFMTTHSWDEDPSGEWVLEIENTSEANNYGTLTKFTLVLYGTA
# ASSAY_SUMMARY: Furin enzyme assay
# Assay type: biochemical
Counter-ions that a name gives are not always drawn.
PARAMETER_MEASURED: furin enzyme pIC50

INSERT INTO results (compound, parameter_measured, readout_number) VALUES
  ('CN1CCN(c2ccc(Oc3cc(CN4CCC(CCO)CC4)cc(-c4cc(Cl)cc(Cl)c4)n3)nn2)CC1', 'furin enzyme pIC50', 9),
  ('COC(=O)NCC1(F)CCN(Cc2cc(Oc3cnc(N4CCN(CCC(=O)O)CC4)nc3)nc(-c3cc(Cl)cc(Cl)c3)c2)CC1 [Example 51, hydrochloride]', 'furin enzyme pIC50', 8.2),
  ('CC(=O)NCC1CCN(Cc2cc(Oc3ccc(N4CCNCC4)nc3)nc(-c3cc(Cl)cc(Cl)c3)c2)CC1 [Example 9, hydrochloride]', 'furin enzyme pIC50', 9.2),
  ('CC(=O)NCC1CCN(Cc2cc(Oc3ccc(N4CC[C@@H](N)[C@@H](F)C4)nc3)cc(-c3cc(Cl)cc(Cl)c3)c2)CC1 [Example 106, hydrochloride]', 'furin enzyme pIC50', 9.4),
  ('CNCCC(C)N1CCN(c2ncc(Oc3cc(CN4CCC(CC(=O)O)CC4)cc(-c4cc(Cl)cc(Cl)c4)n3)cn2)CC1 (stereo not shown)', 'furin enzyme pIC50', 8),
  ('CNC(=O)NCC1CCN(Cc2cc(Oc3cnc(N4CCN(CCCO)CC4)nc3)nc(-c3cc(Cl)cc(Cl)c3)c2)CC1', 'furin enzyme pIC50', 10.7),
  ('CNC(=O)NCC1CCN(Cc2cc(Oc3ccc(N4CCN(CCO)CC4)nc3)nc(-c3cc(Cl)cc(Cl)c3)c2)CC1', 'furin enzyme pIC50', 7.6),
  ('CN1CCCN(c2ncc(Oc3cc(CN4CCC(CC(=O)O)CC4)cc(-c4cc(Cl)cc(Cl)c4)n3)cn2)CC1', 'furin enzyme pIC50', 9),
  ('NC1(CO)CCN(c2ncc(Oc3cc(CN4CCC(CC(=O)O)CC4)cc(-c4cc(Cl)cc(Cl)c4)n3)cn2)CC1', 'furin enzyme pIC50', 8.4),
  ('CC(=O)NCC1CCN(Cc2cc(Oc3cnc(N4CCN(C)CC4)nc3)nc(-c3cc(Cl)cc(Cl)c3)c2)CC1', 'furin enzyme pIC50', 9.1),
  ('O=C(O)CC1CCN(Cc2cc(Oc3cnc(N4CC5CC(C4)N5)nc3)nc(-c3cc(Cl)cc(Cl)c3)c2)CC1', 'furin enzyme pIC50', 8.4),
  ('CCN1CCN(c2ccc(Oc3cc(CN4CCC(CC(=O)O)CC4)cc(-c4cc(Cl)cc(Cl)c4)n3)nn2)CC1', 'furin enzyme pIC50', 9.1),
  ('COC(=O)NCC1CCN(Cc2cc(Oc3cnc(N4CCN(CCCS(C)(=O)=O)CC4)nc3)nc(-c3cc(Cl)cc(Cl)c3)c2)CC1', 'furin enzyme pIC50', 9.8);

* * *

Known log10 of EC50 of a selection of molecules
# STUDY_TARGET: furin (endogenous protease) in U20S cells (Homo sapiens)
# Construct: the endogenous protease cleaves GFP; endogenous in cells; host or cells: U2OS cells transduced with a BacMam reporter
# ASSAY_SUMMARY: Furin cell-based assay (image-based, Golgi-targeted GFP with BMP10 furin/PCSK cleavage site);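 note: Read-out is mean GFP fluorescence of Golgi puncta per cell by high-content imaging, retained when furin inhibited, over an eleven-point 0.00017–10 µM series, four-parameter fit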
# TEST_PARAMETERS: 24-hour incubation, read-out: furin golgi cell pXC50 (converted)
PARAMETER_MEASURED: log10 of EC50 (log10 of the value in nM)

INSERT INTO measurements (molecule, readout_number) VALUES
  ('CC(CO)N1CCN(c2ncc(Oc3cc(CN4CCC(CC(=O)O)CC4)cc(-c4cc(Cl)cc(Cl)c4)n3)cn2)CC1 (stereo not drawn)', 0.80),
  ('CNC(=O)NCC1CCN(Cc2cc(Oc3cnc(N4CCN(CCCS(C)(=O)=O)CC4)nc3)nc(-c3cc(Cl)cc(Cl)c3)c2)CC1', 0.70),
  ('CC(=O)NC(=O)NCC1CCN(Cc2cc(Oc3cnc(N4CCN(C)CC4)nc3)nc(-c3cc(Cl)cc(Cl)c3)c2)CC1', 0.50),
  ('CNC(=O)NCC1CCN(Cc2cc(Oc3ccc(N4CCN(CCS(C)(=O)=O)CC4)nc3)nc(-c3cc(Cl)cc(Cl)c3)c2)CC1', 1.20),
  ('CC(=O)NCC1CCN(Cc2cc(Oc3cnc(N4CCN(CCC(=O)O)CC4)c(F)c3)nc(-c3cc(Cl)cc(Cl)c3)c2)CC1', 1.70),
  ('CN1C2CCC1CN(c1ncc(Oc3cc(CN4CCC(CC(=O)O)CC4)cc(-c4cc(Cl)cc(Cl)c4)n3)cn1)C2', 0.80);
